Sourced from ChEMBL document CHEMBL2150957

Assay: Plasma concentration in C57BL/6 mouse at 10 mg/kg, ip after 1 hr
Type: ADME, organism-based
Set-up: dose 10 mg/kg, route intraperitoneal
METRIC: concentration at 1 h (µM)

INSERT INTO results (molecule, quantitative_readout) VALUES
  ('O=C(O)Cc1ccc(-c2ccccc2)c(F)c1 [DESMETHYLFLURBIPROFEN]', 68);

---

Biological target: Prostaglandin G/H synthase 2 (Mus musculus)
Test: Inhibition of mouse COX2-mediated arachidonic acid oxygenation at 10 uM preincubated for 3 mins before […] measured after 30 seconds
METRIC: inhibition (%)

INSERT INTO results (smiles_text, assayed_target, measurement_units, quantitative_readout) VALUES
  ('O=C(O)Cc1cccc(Oc2ccccc2)c1', 'Prostaglandin G/H synthase 2 (Mus musculus)', '%', 24),
  ('CC(C)Cc1ccc(C2(C(=O)O)CC2)cc1', 'Prostaglandin G/H synthase 2 (Mus musculus)', '%', 10),
  ('CC(C)(C(=O)O)c1ccc(-c2ccccc2)c(F)c1', 'Prostaglandin G/H synthase 2 (Mus musculus)', '%', 5),
  ('O=C(O)Cc1cccc(C(=O)c2ccccc2)c1', 'Prostaglandin G/H synthase 2 (Mus musculus)', '%', 10),
  ('CC(C)(C(=O)O)c1cccc(Oc2ccccc2)c1', 'Prostaglandin G/H synthase 2 (Mus musculus)', '%', 17),
  ('CC(C)(C(=O)O)c1cccc(C(=O)c2ccccc2)c1', 'Prostaglandin G/H synthase 2 (Mus musculus)', '%', 32),
  ('CC(C)Cc1ccc(CC(=O)O)cc1', 'Prostaglandin G/H synthase 2 (Mus musculus)', '%', 14),
  ('COc1ccc2cc(CC(=O)O)ccc2c1', 'Prostaglandin G/H synthase 2 (Mus musculus)', '%', 16),
  ('O=C(O)C1(c2cccc(Oc3ccccc3)c2)CC1', 'Prostaglandin G/H synthase 2 (Mus musculus)', '%', 15);

---

Test: Plasma concentration in C57BL/6 mouse at 10 mg/kg, ip after 4 hrs
Format: ADME, organism-based
Design: dose 10 mg/kg, route intraperitoneal
METRIC: concentration at 4 h

INSERT INTO assay_data (molecule, result) VALUES
  ('O=C(O)Cc1ccc(-c2ccccc2)c(F)c1 [DESMETHYLFLURBIPROFEN]', '6 µM');

---

Biological target: Prostaglandin G/H synthase 2 (Mus musculus)
Sequence (whole entry): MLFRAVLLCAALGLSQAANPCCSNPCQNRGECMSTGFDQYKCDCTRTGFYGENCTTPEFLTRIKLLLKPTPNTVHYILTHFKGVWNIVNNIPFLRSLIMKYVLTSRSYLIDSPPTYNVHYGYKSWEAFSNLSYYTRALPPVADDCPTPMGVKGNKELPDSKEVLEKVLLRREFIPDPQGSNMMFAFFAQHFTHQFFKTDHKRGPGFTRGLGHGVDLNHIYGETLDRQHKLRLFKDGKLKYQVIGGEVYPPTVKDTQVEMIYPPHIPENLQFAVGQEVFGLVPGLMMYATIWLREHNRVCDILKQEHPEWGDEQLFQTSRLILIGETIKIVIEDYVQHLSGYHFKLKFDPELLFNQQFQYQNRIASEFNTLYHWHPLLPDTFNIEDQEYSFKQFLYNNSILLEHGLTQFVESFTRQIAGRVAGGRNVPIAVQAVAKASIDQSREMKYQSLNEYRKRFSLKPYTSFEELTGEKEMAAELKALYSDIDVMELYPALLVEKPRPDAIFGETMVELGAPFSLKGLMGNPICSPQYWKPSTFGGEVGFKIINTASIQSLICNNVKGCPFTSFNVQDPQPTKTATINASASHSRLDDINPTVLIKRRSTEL
Experiment: Inhibition of mouse COX2-mediated arachidonic acid oxygenation at 10 uM preincubated for 3 mins before […] measured after 30 seconds
The following molecules are listed with their measured inhibition values.
METRIC: inhibition (%)

INSERT INTO results (smiles_text, assayed_target, quantitative_readout) VALUES
  ('COc1ccc2cc(C3(C(=O)O)CC3)ccc2c1', 'Prostaglandin G/H synthase 2 (Mus musculus)', 6),
  ('COc1ccc2cc(C(C)(C)C(=O)O)ccc2c1', 'Prostaglandin G/H synthase 2 (Mus musculus)', 7),
  ('O=C(O)Cc1ccc(-c2ccccc2)c(F)c1', 'Prostaglandin G/H synthase 2 (Mus musculus)', 7),
  ('O=C(c1ccccc1)c1cccc(C2(C(=O)O)CC2)c1', 'Prostaglandin G/H synthase 2 (Mus musculus)', 10),
  ('O=C(O)C1(c2ccc(-c3ccccc3)c(F)c2)CC1', 'Prostaglandin G/H synthase 2 (Mus musculus)', 0),
  ('CC(C)Cc1ccc(C(C)(C)C(=O)O)cc1', 'Prostaglandin G/H synthase 2 (Mus musculus)', 5);

---

Experiment: Plasma concentration in C57BL/6 mouse at 10 mg/kg, ip after 2 hrs
Format: ADME, organism-based
Parameters: dose 10 mg/kg, route intraperitoneal
METRIC: concentration at 2 h (µM)

INSERT INTO measurements (smiles_text, quantitative_readout) VALUES
  ('O=C(O)Cc1ccc(-c2ccccc2)c(F)c1', 50);
